measured_target: the molecule itself
experimental_details: SEC; Superose 6 10/300 GL, 50 mM Tris-HCl pH 7.5, 150 mM NaCl, 10% glycerol, 0.5 mM β-mercaptoethanol, 4 °C; ~75 μg of the Sae2 variant, mock-treated or treated with λ phosphatase for 90 min at 30 °C before loading; absorbance at 215 nm

protein	binding result
pSae2 S267E phosphomimicking variant, expressed in the presence of phosphatase inhibitors (natural protein, S. cerevisiae, UniProt P46946 1-345, looked up, phosphorylated (prepared with phosphatase inhibitors; sites not listed), Sae2, S. cerevisiae, full-length polypeptide with S267E; not shown: MBP, N-terminal, cleaved) MVTGEENVYLKSSLSILKELSLDELLNVQYDVTTLIAKRVQALQNRNKCVLEEPNSKLAEILCHEKNAPQQSSQTSAGPGEQDSEDFILTQFDEDIKKESAEVHYRNENKHTVQLPLVTMPPNRHKRKISEFSSPLNGLNNLSDLEDCSDTVIHEKDNDKENKTRKLLGIELENPESTSPNLYKNVKDNFLFDFNTNPLTKRAWILEDFRPNEDIAPVKRGRRKLERFYAQVGKPEDSKHRSLSVVIESQNSDYEFAFDNLRNRSKEPPGFGRLDFPSTQEGNEDKKKSQEIIRRKTKYRFLMASNNKIPPYEREYVFKREQLNQIVDDGCFFWSDKLLQIYARC	binds

// provenance: paper PMC6167383
